# assay.system: human pancreatic GK (human glucokinase variant 1, GST-fused protein) (Homo sapiens)
# Construct: made in house; host or cells: Escherichia coli (such as BL21 or JM109)
# Sequence (P35557 1-465): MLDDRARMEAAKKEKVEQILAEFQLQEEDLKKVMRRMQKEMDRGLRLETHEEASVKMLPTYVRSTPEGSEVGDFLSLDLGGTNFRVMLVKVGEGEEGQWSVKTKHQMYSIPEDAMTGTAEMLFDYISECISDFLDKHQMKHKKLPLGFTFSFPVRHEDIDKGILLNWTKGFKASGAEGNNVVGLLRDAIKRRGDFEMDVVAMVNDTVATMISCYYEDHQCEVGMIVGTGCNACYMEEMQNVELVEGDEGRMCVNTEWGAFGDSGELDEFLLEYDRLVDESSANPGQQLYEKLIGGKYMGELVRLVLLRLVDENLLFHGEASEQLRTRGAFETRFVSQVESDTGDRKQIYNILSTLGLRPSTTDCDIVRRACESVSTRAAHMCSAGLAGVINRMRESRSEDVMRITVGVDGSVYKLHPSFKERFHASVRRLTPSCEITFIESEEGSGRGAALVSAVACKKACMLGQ
# experiment: GK activity test (GK activation rate)
# Format: biochemical
# settings: test compound 1 μM; glucose 5 mM; 30 min at room temperature; absorbance at 340 nm with test compound / without test compound
result.type: GK Activation Rate

chemical.smiles | result.type | readout.value
C[C@H]1CN=C(c2ccc(-c3cc(Oc4cnc(S(C)(=O)=O)cn4)cc(O[C@@H](C)CO)c3)[nH]2)O1 | GK Activation Rate | 1.9
C[C@H]1CN=C(c2ccc(-c3cc(Oc4ccc(C(=O)N5CCC5)cc4F)cc(O[C@@H](C)CO)c3)[nH]2)O1 | GK Activation Rate | 1.9
COC[C@H](C)Oc1cc(Oc2ccc(S(C)(=O)=O)nc2)cc(-c2ccc(C3=N[C@H](CO)[C@H](C)O3)[nH]2)c1 | GK Activation Rate | 2.6
COC[C@H](C)Oc1cc(Oc2ccc(S(C)(=O)=O)cc2)cc(-c2ccc(C3=NC[C@@H](C)O3)[nH]2)c1 | GK Activation Rate | 1.7
C[C@@H](CO)Oc1cc(Oc2ccc(S(C)(=O)=O)cc2)cc(-c2ccc(C3=NCCO3)[nH]2)c1 | GK Activation Rate | 2.0
C[C@H]1CN=C(c2ccc(-c3cc(Oc4ccc(S(C)(=O)=O)nc4)cc(O[C@@H](C)CO)c3)[nH]2)O1 | GK Activation Rate | 2.6
COC[C@H](C)Oc1cc(Oc2ccc(S(C)(=O)=O)cc2)cc(-c2ccc(C3=NCCO3)[nH]2)c1 | GK Activation Rate | 2.0
CNS(=O)(=O)c1ccc(Oc2cc(O[C@@H](C)CO)cc(-c3ccc(C4=NC[C@H](C)O4)[nH]3)c2)cn1 | GK Activation Rate | 2.5
COC[C@H](C)Oc1cc(Oc2ccc(S(C)(=O)=O)cc2)cc(-c2ccc(C(C)=O)[nH]2)c1 | GK Activation Rate | 1.6
C[C@H]1CN=C(c2ccc(-c3cc(Oc4ncc(C(=O)N5CCC5)cc4Cl)cc(O[C@@H](C)CO)c3)[nH]2)O1 | GK Activation Rate | 1.8
C[C@@H]1OC(c2ccc(-c3cc(Oc4ccc(S(C)(=O)=O)nc4)cc(O[C@@H](C)CO)c3)[nH]2)=N[C@@H]1C | GK Activation Rate | 2.4
COC[C@H](C)Oc1cc(Oc2cnc(S(C)(=O)=O)cn2)cc(-c2ccc(C3=N[C@H](CO)[C@H](C)O3)[nH]2)c1 | GK Activation Rate | 2.4
COC[C@H](C)Oc1cc(Oc2ccc(S(C)(=O)=O)cc2)cc(-c2ccc(C3=NC[C@H](CO)O3)[nH]2)c1 | GK Activation Rate | 2.1
COC[C@H](C)Oc1cc(Oc2cnc(S(C)(=O)=O)cn2)cc(-c2ccc(C3=N[C@H]([C@H](C)O)CO3)[nH]2)c1 | GK Activation Rate | 2.4
COC[C@H](C)Oc1cc(Oc2ccc(C(=O)N3CCCC3)cc2F)cc(-c2ccc(-c3nccs3)[nH]2)c1 | GK Activation Rate | 2.0
CC[C@@H]1COC(c2ccc(-c3cc(Oc4cnc(S(C)(=O)=O)cn4)cc(O[C@@H](C)CO)c3)[nH]2)=N1 | GK Activation Rate | 2.0
Cc1nnc(-c2ccc(-c3cc(Oc4cnc(S(C)(=O)=O)cn4)cc(O[C@@H](C)CO)c3)[nH]2)o1 | GK Activation Rate | 1.9

* * *

GK Activation Rate listing for selected compounds.
# assay.system: human pancreatic GK (human glucokinase variant 1, GST-fused protein) (Homo sapiens)
# Construct: made in house; host or cells: Escherichia coli (such as BL21 or JM109)
# experiment: GK activity test (GK activation rate)
# Format: biochemical
# settings: test compound 1 μM; glucose 5 mM; 30 min at room temperature; absorbance at 340 nm with test compound / without test compound

compound | GK Activation Rate
C[C@@H]1OC(c2ccc(-c3cc(Oc4cnc(S(C)(=O)=O)cn4)cc(O[C@@H](C)CO)c3)[nH]2)=N[C@@H]1C [Example 109] | 2.2
COC[C@H](C)Oc1cc(Oc2ccc(S(C)(=O)=O)cc2)cc(-c2ccc(C3=NCC(CO)O3)[nH]2)c1 (stereo partly drawn) [Example 29] | 2.0
C[C@@H](CO)Oc1cc(Oc2ccc(S(C)(=O)=O)cc2)cc(-c2ccc(C3=NCCS3)[nH]2)c1 [Example 26] | 2.3
COC[C@H](C)Oc1cc(Oc2ccc(S(C)(=O)=O)nc2)cc(-c2ccc(C3=N[C@H]([C@@H](C)O)CO3)[nH]2)c1 [Example 95] | 2.5
COC[C@H](C)Oc1cc(Oc2ncc(C(=O)N3CCC3)cc2Cl)cc(-c2ccc(C3=NCCO3)[nH]2)c1 [Example 73] | 2.0
COC[C@H](C)Oc1cc(Oc2ccc(C(=O)N3CCC3)cc2F)cc(-c2ccc(-c3nccs3)[nH]2)c1 [Example 41] | 2.1
